# Percent Effect values compiled below
System: Mycobacterium tuberculosis
assay_info: Cornell - Phenotypic assay to identify agents that inhibit growth of Mycobacterium tuberculosis
Assay type: functional
Design: scale not given: direction of the effect not stated beside the values
assay_setup: 10 mM as filed; unlikely as a test dose
Hit rate of the full screen: of about 53,000 compounds, about 900 (1.7%) showed an effect of 50% or more. For the sample, strong results were picked, then their nearest neighbours and some compounds at random.
Give a bare numeral; the unit % is implied.

Observe how each entry below is paired with its result.
**Query** State its Percent Effect for this compound: Cc1cc2[nH]c(O)nc2cc1NCc1ccccc1
**Result** 38.01

**Query** Answer with the recorded Percent Effect for the compound listed here: CN(CCc1nccs1)C(=O)C1(C#N)CCCCC1
**Result** 25.08

**Query** Name the recorded Percent Effect of the compound listed here: NC(=O)C1CCCN(c2ccc(CNC(=O)c3cnsn3)cc2)C1 (stereo unspecified)
**Result** -38.73

**Query** Read off the recorded Percent Effect for CC(NC(=O)N1CCN(c2cccs2)CC1)c1ccncc1 (stereo unspecified)
**Result** 62.51

Others:
**Query** Recall and state the measured Percent Effect for CC(=O)Nc1nc(C(=O)NC(C)c2ccc(C#N)cc2)cs1 (stereo unspecified) .
**Result** 12.08

**Query** Return Percent Effect (reported value) for this compound: Cc1cccnc1CN(C)C(C(=O)O)c1ccc(C(C)(C)C#N)cc1 (stereo unspecified)
**Result** 37.7

**Query** Write down Percent Effect measured for item Cc1ccc(-c2cc(N)c(=O)n(CC(=O)NC3CCCC3)n2)s1
**Result** -35.82

----------
Test system: Mycobacterium tuberculosis
assay_info: Cornell - Phenotypic assay to identify agents that inhibit growth of Mycobacterium tuberculosis
Format: functional
Parameters: scale not given: direction of the effect not stated beside the values
assay_setup: 10 mM as filed; unlikely as a test dose
Hit rate of the full screen: of about 53,000 compounds, about 900 (1.7%) showed an effect of 50% or more. Many of the other results were omitted from the sample, so strong results are more common in it than they were.
Lab note: anything with Percent Effect at or over 40% counts as Condition met; the rest go in Condition not met.

Recorded results for 5 compounds are shown here.
**Query** Is it the case that COc1ccc2c(c1)OCC(Cc1ccc(N)nc1C)C2 (stereo unspecified) has Percent Effect reaching or exceeding 40%?
**Result** Condition not met

**Query** Would you say CCC(CO)NCc1ccc(-c2ccc(F)cc2)o1.Cl (stereo unspecified) shows Percent Effect at minimum 40%?
**Result** Condition not met

**Query** Check the entry Cc1cc(C2CCCCN2C(=O)c2cccn2C)nc2nccn12 (stereo unspecified) : does Percent Effect equal or exceed 40%?
**Result** Condition not met

**Query** Hi, just wondering whether CCC(CO)NCc1ccc(-c2ccc(Br)cc2)o1.Cl (stereo unspecified) shows Percent Effect of 40% or higher.
**Result** Condition met

**Query** # bool: Percent Effect of COc1ccc2c(c1)OCC(Cc1ccc(C)nc1N)C2 (stereo unspecified) >= 40%
**Result** Condition not met

Please look at the following compound next.
**Query** Quick check, Percent Effect >= 40%? Cc1csc(N2CCN(Cc3cccnc3)CC2C)n1 (stereo unspecified)
**Result** Condition not met

----------
Test system: Mycobacterium tuberculosis
assay_info: Cornell - Phenotypic assay to identify agents that inhibit growth of Mycobacterium tuberculosis
Format: functional
Set-up: scale not given: direction of the effect not stated beside the values
assay_setup: 10 mM as filed; unlikely as a test dose
Screen size: about 53,000 compounds; about 900 (1.7%) showed an effect of 50% or more. This excerpt belongs to a sample that is enriched for strong results.
Percent Effect listing for selected compounds.
# unit: % | format: bare number

Some entries whose results are on file:
**Query** # return recorded Percent Effect for input CC(=O)N[C@@H]1CN(C2CCN(c3cccc(Cl)c3)CC2)C[C@H]1C(C)C
**Result** 62.82

**Query** Fill in Percent Effect for record COc1ccccc1Oc1cncc(C2CCCN(C)C2)n1 (stereo unspecified)
**Result** 10.25

**Query** Using known records, supply Percent Effect for Cc1cccc(NC2CCN(C(=O)Nc3ccc(F)c(F)c3)CC2)n1
**Result** 108.1

More entries:
**Query** Note Percent Effect for the compound shown: CCS(=O)(=O)N1CCCCC1c1nc(CC(C)C)no1 (stereo unspecified)
**Result** 28.4

**Query** Find the measured Percent Effect of Cc1cccc(NC2CCN(C(=O)Nc3ccncc3)CC2)n1 and report it.
**Result** -35.06

**Query** Give recorded Percent Effect. Cc1cccc(NC2CCN(C(=O)Nc3cccc4[nH]ccc34)CC2)n1
**Result** 103.5

----------
Test system: Mycobacterium tuberculosis
assay_info: Cornell - Phenotypic assay to identify agents that inhibit growth of Mycobacterium tuberculosis
Type: functional
Parameters: scale not given: direction of the effect not stated beside the values
assay_setup: 10 mM as filed; unlikely as a test dose
Screen size: about 53,000 compounds; about 900 (1.7%) showed an effect of 50% or more. This excerpt belongs to a sample that is enriched for strong results.
measured_quantity: Percent Effect

Worked examples follow.
**Query** Give Percent Effect for the following compound: CNS(=O)(=O)c1cc(C(=O)NC2CCOc3ccccc32)cc(C)c1C (centres undefined)
**Result** -0.5765%

**Query** Return reported Percent Effect. Input compound: CCc1cc(=O)[nH]c(NC2CCN(S(=O)(=O)c3ccccc3)CC2)n1
**Result** 69.51%

**Query** Provide measured Percent Effect value, entry: Oc1ccccc1-c1n[nH]c(C2CC2)n1
**Result** -27.03%

**Query** Give a short answer stating reported Percent Effect for COCCC1(CNC(=O)Nc2ccc(-n3nccn3)cc2)CCC1 .
**Result** 32.79%

**Query** Complete the entry with Percent Effect for CCN(CC)S(=O)(=O)N1CC[C@H](c2ccccc2)[C@@H]2[C@H]1CCCCN2C
**Result** 1.905%

For the next question, use this compound.
**Query** Please give the documented Percent Effect of CN(Cc1ccncc1)c1cncc(Br)c1
**Result** -1.215%

----------
Test system: Mycobacterium tuberculosis
assay_info: Cornell - Phenotypic assay to identify agents that inhibit growth of Mycobacterium tuberculosis
Assay type: functional
Parameters: scale not given: direction of the effect not stated beside the values
assay_setup: 10 mM as filed; unlikely as a test dose
Out of some 53,000 compounds screened, about 900 (1.7%) showed an effect of 50% or more. The full list was thinned out, with strong results kept by preference.
Rule: satisfied for Percent Effect not less than -10%, not satisfied for anything less.

Known results for compounds:
**Query** Say whether COC(=O)N1CC2(CCNCC2)c2cc(Cl)ccc21.Cl shows Percent Effect of -10% or more.
**Result** satisfied

**Query** Given the entry CC(=O)N1CC2(CCNCC2)c2cc(Cl)ccc21.Cl , answer whether its Percent Effect meets or surpasses -10%.
**Result** satisfied

**Query** In plain terms: is recorded Percent Effect at least -10% for c1coc(CNCC2Cn3nncc3CO2)c1 (stereo unspecified) ?
**Result** not satisfied

Others:
**Query** Decide: is the reported value of Percent Effect for CC(CN1CCOCC1)NC(=O)NCc1cccs1 (stereo unspecified) equal to or greater than -10%?
**Result** not satisfied

**Query** Decide: is the reported value of Percent Effect for O=C(O)C(F)(F)F.O=C([C@H]1C[C@@H]2CCN(c3cccc(F)c3)C[C@H]2O1)N1CCCC1 equal to or greater than -10%?
**Result** satisfied

**Query** Check if Percent Effect >= -10% (inclusive). Item: CN(C)C(=O)N1CC2(CCNCC2)c2cc(Cl)ccc21.Cl
**Result** not satisfied

----------
Reported Percent Effect is given for each of the following molecules.
Tested on: Mycobacterium tuberculosis
assay_info: Cornell - Phenotypic assay to identify agents that inhibit growth of Mycobacterium tuberculosis
Assay type: functional
Design: scale not given: direction of the effect not stated beside the values
assay_setup: 10 mM as filed; unlikely as a test dose
The whole screen tested about 53,000 compounds, of which about 900 (1.7%) showed an effect of 50% or more. Shown is part of a subset that was picked to be rich in strong results.
Only the number, expressed in %, is required.

**Query** Write down Percent Effect measured for item O=C(c1cc(C2CC2)on1)N1C[C@H]2CC[C@](O)(c3ccccc3F)[C@H]2C1
**Result** 7.092

**Query** Look up and state reported Percent Effect for CC(C)CN1C[C@H](COCc2ccccc2)Oc2ncccc2C1=O
**Result** -10.08

**Query** In one line, give reported Percent Effect of the entry CC(C)Nc1nc2c(s1)C(=O)CN(CC1CC1)C2 .
**Result** -4.506

**Query** Specify measured Percent Effect for CCc1n[nH]c(C(=O)NCCn2nccc2C)c1C .
**Result** -14.26

**Query** Please give measured Percent Effect of the following entry: CNC(=O)CNCC1(O)CCCN(Cc2ccc(F)c(F)c2)C1=O (stereo unspecified)
**Result** -12.88

**Query** Given Cc1cc(C)n(C2CN(c3ncnc4[nH]ccc34)C2)n1 , respond with its Percent Effect.
**Result** -54.22

**Query** Report measured Percent Effect; entry is CCc1ccc(C(COC)NC(=O)c2ccc(F)c(NC(C)=O)c2)o1 (stereo unspecified)
**Result** -34.26

**Query** State, in one line, measured Percent Effect of CN(CC(=O)NC1(C)CCS(=O)(=O)C1)Cc1ccc(Br)cc1 (stereo unspecified)
**Result** -6.576

**Query** Provide Percent Effect value for the following molecule: CNc1oc(-c2ccc(OC)c(S(=O)(=O)N3CCCC3)c2)nc1C#N
**Result** 17.45

**Query** Specify reported Percent Effect for the molecule shown: CN(CCCc1cnn(C)c1)Cc1cc2n(n1)CCCN(C)C2
**Result** 2.304

**Query** Annotate the molecule COc1cccc(CN(C)C(=O)CN2CC(n3nc(C)cc3C)C2)c1 with its measured Percent Effect.
**Result** 24.75
